target: MtBPL (Mycobacterium tuberculosis, UniProt I6YFP0); details: from K of displacement ITC, 298 K
Sequence (I6YFP0 whole entry, looked up): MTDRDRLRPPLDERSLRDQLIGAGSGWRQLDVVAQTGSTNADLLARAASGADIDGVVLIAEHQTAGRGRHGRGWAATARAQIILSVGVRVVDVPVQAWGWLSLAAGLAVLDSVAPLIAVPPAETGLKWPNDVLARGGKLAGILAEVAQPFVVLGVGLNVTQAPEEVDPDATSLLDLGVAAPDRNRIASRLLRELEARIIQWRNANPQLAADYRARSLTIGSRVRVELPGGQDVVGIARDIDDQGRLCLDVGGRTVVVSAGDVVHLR
# key: entry, value: ΔG
value-kind: ΔG (kcal/mol)

INSERT INTO measurements (compound, value_kind, u, measured_value) VALUES
  ('CCN(CC)CC.C[C@@]1(O)[C@H](O)[C@@H](COS(=O)(=O)NC(=O)CCCC[C@@H]2SC[C@@H]3NC(=O)N[C@@H]32)O[C@H]1n1cnc2c(N)ncnc21 [Compound 73]', 'ΔG', 'kcal/mol', -12.4),
  ('CCN(CC)CC.Nc1ncnc2c1ncn2[C@@H]1O[C@H](CNS(=O)(=O)NC(=O)CCCC[C@@H]2SC[C@@H]3NC(=O)N[C@@H]32)C[C@H]1O [Compound 87]', 'ΔG', 'kcal/mol', -12.6),
  ('[N-]=[N+]=N[C@H]1[C@H](O)[C@@H](COS(=O)(=O)NC(=O)CCCC[C@@H]2SC[C@@H]3NC(=O)N[C@@H]32)O[C@H]1n1cnc2c(N)ncnc21 [Compound 57]', 'ΔG', 'kcal/mol', -14.4),
  ('CCN(CC)CC.Nc1ncnc2c1ncn2[C@H]1C=C[C@@H](CNS(=O)(=O)NC(=O)CCCC[C@@H]2SC[C@@H]3NC(=O)N[C@@H]32)C1 [Compound 34]', 'ΔG', 'kcal/mol', -11.8),
  ('CCN(CC)CC.Nc1ncnc2c1ncn2[C@@H]1O[C@H](CNS(=O)(=O)NC(=O)CCCC[C@@H]2SC[C@@H]3NC(=O)N[C@@H]32)[C@@H](O)[C@H]1F [Compound 63]', 'ΔG', 'kcal/mol', -12.6);
